Tested on: FMLP-stimulated human neutrophils
Assay details: Human neutrophil superoxide generation, FMLP-stimulated (cytochrome C reduction)
Assay type: cell-based
Condition details: Neutrophil; human neutrophils, FMLP; read-out: Inhibition of FMLP Induced Superoxide IC50
Value type: pIC50
API: returns pIC50 as number; meaning -log10 of concentration in mol/L.

CC(C)(C)c1cc(SCCSCC(=O)O)cc(C(C)(C)C)c1O :: 5.30
C[C@H](Sc1cc(C(C)(C)C)c(O)c(C(C)(C)C)c1)[C@@H](C)OCC(=O)O (relative stereo) [Example 9, 11] :: 4.96

Exam item: Form: Entry = C[C@H](Sc1cc(C(C)(C)C)c(O)c(C(C)(C)C)c1)[C@@H](C)OCC(=O)O (single isomer, unassigned) [Example 18] | System = FMLP-stimulated human neutrophils | pIC50 = ____
Marked response: 5.00

* * *

Measured on: 5-lipoxygenase (Rattus norvegicus, UniProt P12527)
Construct: Rat Basophilic Leukemia Cell Homogenate (RBL-1) serves as a 5-lipoxygenase enzyme source; endogenous in cells
Sequence (P12527 whole entry): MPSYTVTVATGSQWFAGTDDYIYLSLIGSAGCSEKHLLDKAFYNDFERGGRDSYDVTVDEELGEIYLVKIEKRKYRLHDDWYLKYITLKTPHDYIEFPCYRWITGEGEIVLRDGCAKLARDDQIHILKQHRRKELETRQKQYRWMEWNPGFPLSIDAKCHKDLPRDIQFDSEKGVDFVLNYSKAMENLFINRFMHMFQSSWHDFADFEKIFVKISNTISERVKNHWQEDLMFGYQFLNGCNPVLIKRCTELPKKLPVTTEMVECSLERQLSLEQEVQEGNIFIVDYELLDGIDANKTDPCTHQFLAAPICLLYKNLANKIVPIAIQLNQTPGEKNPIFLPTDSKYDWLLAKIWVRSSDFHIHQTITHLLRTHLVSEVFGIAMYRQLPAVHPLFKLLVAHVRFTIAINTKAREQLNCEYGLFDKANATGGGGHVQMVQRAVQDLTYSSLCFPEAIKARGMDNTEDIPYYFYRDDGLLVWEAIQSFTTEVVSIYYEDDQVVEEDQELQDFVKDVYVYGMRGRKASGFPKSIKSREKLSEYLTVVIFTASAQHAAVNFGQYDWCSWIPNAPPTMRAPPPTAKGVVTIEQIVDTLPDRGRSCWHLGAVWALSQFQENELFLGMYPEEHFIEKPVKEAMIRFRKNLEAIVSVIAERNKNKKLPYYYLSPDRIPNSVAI
Assay details: Inhibition of 5-lipoxygenase, in vitro (5-HETE synthesis from [1-14C]-arachidonic acid, RBL-1 supernatant)
Condition details: RBL-1 100,000×g supernatant
Listing of recorded pIC50 by entry.
API: returns pIC50 as number; meaning -log10 of concentration in mol/L.

Exam item: Which value of pIC50 has been reported for C[C@H](Sc1cc(C(C)(C)C)c(O)c(C(C)(C)C)c1)[C@@H](C)OCC(=O)O (relative stereo) [Example 9, 11] in the records?
Marked response: 5.31

Exam item: Moving on to `CC(C)(C)c1cc(SCCSCC(=O)O)cc(C(C)(C)C)c1O`
Marked response: 5.48

Exam item: Moving on to CN(CCc1ccccn1)C(=O)CCSc1cc(C(C)(C)C)c(O)c(C(C)(C)C)c1 [Formula IV, reference compound]
Marked response: 6.49

Exam item: Moving on to C[C@H](Sc1cc(C(C)(C)C)c(O)c(C(C)(C)C)c1)[C@@H](C)OCC(=O)O (single isomer, unassigned) [Example 18]
Marked response: 5.46

Exam item: Moving on to C[C@H](Sc1cc(C(C)(C)C)c(O)c(C(C)(C)C)c1)[C@@H](C)OCC(=O)O (single isomer, unassigned) [Example 17]
Marked response: 5.37

Recorded values, source patent US5064860A.
